molecular target: FGFR2IIIb-Fc (human, UniProt P21802); experiment: competition ELISA, FGF1
Sequence (P21802 22-377): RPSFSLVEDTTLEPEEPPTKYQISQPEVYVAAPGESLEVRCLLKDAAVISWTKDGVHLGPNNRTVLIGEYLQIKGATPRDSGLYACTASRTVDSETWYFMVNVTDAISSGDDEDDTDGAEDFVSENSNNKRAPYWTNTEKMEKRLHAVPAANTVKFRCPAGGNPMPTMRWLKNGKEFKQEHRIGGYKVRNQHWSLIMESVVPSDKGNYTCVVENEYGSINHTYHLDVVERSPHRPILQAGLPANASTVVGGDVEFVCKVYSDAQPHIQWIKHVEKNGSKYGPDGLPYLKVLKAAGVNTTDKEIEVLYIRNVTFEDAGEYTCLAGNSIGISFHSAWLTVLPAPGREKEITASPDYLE

binder | value units | IC50
III-14 (antibody, V domains shown) VH: QVQLVQSGAEVKKPGSSVKVSCKASGYTFAIYNMHWVRQAPGQGLEWIGAIYPGNGDTFYNQKFKGKATLTADKSTSTAYMELSSLRSEDTAVYYCARGDFGYWGQGTLVTVSS VL: DIVMTQSPSSLSASVGDRVTITCKASQDVNIDVAWYQQKPGKAPKLLIYLASYRYTGVPSRFSGSGSGTDFTFTISSLQPEDFATYYCQQTYSTPYTFGQGTKLEIK | µg/mL | 0.974
III-15 (antibody, V domains shown) VH: QVQLVQSGAEVKKPGSSVKVSCKASGYTFAIYNMHWVRQAPGQGLEWIGAIYPDNGDTFYNQKFKGKATLTADKSTSTAYMELSSLRSEDTAVYYCARGDFGYWGQGTLVTVSS VL: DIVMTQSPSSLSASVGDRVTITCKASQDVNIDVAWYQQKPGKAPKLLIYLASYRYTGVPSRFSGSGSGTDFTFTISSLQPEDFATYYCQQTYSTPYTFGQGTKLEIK | µg/mL | 0.941
III-12 (antibody, V domains shown) VH: QVQLVQSGAEVKKPGSSVKVSCKASGYTFANYNMHWVRQAPGQGLEWIGAIYPDNGDTSYNQKFKGKATLTADKSTSTAYMELSSLRSEDTAVYYCARGDFGYWGQGTLVTVSS VL: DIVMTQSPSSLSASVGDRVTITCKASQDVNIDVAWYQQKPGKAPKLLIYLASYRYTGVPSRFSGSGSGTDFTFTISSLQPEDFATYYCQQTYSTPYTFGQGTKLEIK | µg/mL | 1.08
III-11 (antibody, V domains shown) VH: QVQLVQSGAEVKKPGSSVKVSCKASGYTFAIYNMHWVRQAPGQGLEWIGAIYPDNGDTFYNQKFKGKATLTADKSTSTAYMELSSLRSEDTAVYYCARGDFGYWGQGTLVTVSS VL: DIVMTQSPSSLSASVGDRVTITCKASQDVNIDPAWYQQKPGKAPKLLIYLASYRYTGVPSRFSGSGSGTDFTFTISSLQPEDFATYYCQQHYSTPYTFGQGTKLEIK | µg/mL | 1.18
